Test: physchem
Conditions: octanol/water, pH 6.5
Give measured logD for each item. Keep answers brief.
No unit in the answer, only the number.

Exam item: Kindly indicate its recorded logD. Item: C[C@H](C(=O)O)c1cccc(C(=O)c2ccccc2)c1
Marked response: 0.8

Exam item: Kindly indicate its recorded logD. Item: NC(=O)N1c2ccccc2C=Cc2ccccc21 [CARBAMAZEPINE]
Marked response: 2.45

Exam item: Kindly indicate its recorded logD. Item: CC1(C)S[C@@H]2[C@H](NC(=O)[C@H](N)c3ccc(O)cc3)C(=O)N2[C@H]1C(=O)O
Marked response: -1.7

Exam item: Kindly indicate its recorded logD. Item: CC(C)n1c(/C=C/[C@@H](O)C[C@@H](O)CC(=O)O)c(-c2ccc(F)cc2)c2ccccc21 [FLUVASTATIN SODIUM]
Marked response: 2

###

Test: Distribution coefficient in octanol/water at pH 6.5
Format: physicochemical
Conditions: read-out: Log D6.5
measured.quantity: logD
No unit in the answer, only the number.

Exam item: Kindly indicate its recorded logD. Item: COCCc1ccc(OC[C@@H](O)CNC(C)C)cc1 [(S)-METOPROLOL]
Marked response: -0.5

Exam item: Kindly indicate its recorded logD. Item: CC(C)(C)NC[C@H](O)c1cc(O)cc(O)c1
Marked response: -1.3

Exam item: Kindly indicate its recorded logD. Item: CC(C)C[C@H](N)C(=O)O
Marked response: -1.6

Exam item: Kindly indicate its recorded logD. Item: C[C@H](N[C@@H](CCc1ccccc1)C(=O)O)C(=O)N1CCC[C@H]1C(=O)O [ENALAPRILAT ANHYDROUS]
Marked response: -1

###

Assay: Distribution coefficient in octanol/water at pH 5.5
Assay type: physicochemical
Conditions: read-out: Log D5.5
Give measured logD for each item. Keep answers brief.

Exam item: Kindly indicate its recorded logD. Item: C[C@](N)(Cc1ccc(O)c(O)c1)C(=O)O
Marked response: < -2

Exam item: Kindly indicate its recorded logD. Item: N[C@@H](Cc1ccc(O)c(O)c1)C(=O)O
Marked response: < -2

Exam item: Kindly indicate its recorded logD. Item: CN1CC(=O)NC1=N
Marked response: < -2

###

Assay: Distribution coefficient in octanol/water at pH 7.4
Format: physicochemical
Settings: read-out: Log D7.4
measured.quantity: logD

Exam item: Kindly indicate its recorded logD. Item: C[C@](N)(Cc1ccc(O)c(O)c1)C(=O)O [METHYLDOPA]
Marked response: < -2

Exam item: Kindly indicate its recorded logD. Item: CN1CC(=O)NC1=N [CREATININE]
Marked response: < -2

Exam item: Kindly indicate its recorded logD. Item: N[C@@H](Cc1ccc(O)c(O)c1)C(=O)O [LEVODOPA]
Marked response: < -2

###

Assay: physchem
Conditions: octanol/water
Give measured logP for each item. Keep answers brief.

Exam item: Kindly indicate its recorded logP. Item: CN1CC(=O)NC1=N [CREATININE]
Marked response: < -2

Exam item: Kindly indicate its recorded logP. Item: C[C@](N)(Cc1ccc(O)c(O)c1)C(=O)O [METHYLDOPA]
Marked response: < -2

Exam item: Kindly indicate its recorded logP. Item: N[C@@H](Cc1ccc(O)c(O)c1)C(=O)O [LEVODOPA]
Marked response: < -2

###

Assay: Distribution coefficient in octanol/water at pH 6.5
Format: physicochemical
Settings: read-out: Log D6.5
Give measured logD for each item. Keep answers brief.

Exam item: Kindly indicate its recorded logD. Item: N[C@@H](Cc1ccc(O)c(O)c1)C(=O)O
Marked response: < -2

Exam item: Kindly indicate its recorded logD. Item: CN1CC(=O)NC1=N
Marked response: < -2

Exam item: Kindly indicate its recorded logD. Item: C[C@](N)(Cc1ccc(O)c(O)c1)C(=O)O
Marked response: < -2
